Data provenance is PubChem BioAssay (NCI).

Tested on: RPMI-8226 leukemia
Assay Explanation: NCI-60 one-dose screen, 48 h (100 = growth as untreated, 0 = no growth, -100 = all killed)
Experimental Parameters: 10 µM unless noted
About 83,000 compounds went through this panel and 20% of them were active in at least one assay; those are over-represented in the sample as a whole.
Label Y when growth is strictly below 80%; at or above that, label N.

NC[C@@H]1O[C@H](O[C@@H]2[C@@H](CO)OC(O[C@@H]3[C@@H](O)[C@H](N)C[C@H](N)[C@H]3OC3O[C@H](CN)[C@@H](O)[C@H](O)[C@H]3N)[C@@H]2O)[C@H](N)[C@@H](O)[C@@H]1O (some centres undefined)    N
COc1ccc2c(c1)nc(NNC(=O)c1cnccn1)c1cccn12    Y
CC1=NN(c2ccc(S(=O)(=O)O)cc2)C(=O)C1N=Nc1ccc(-c2ccc(N=Nc3ccc(OS(=O)(=O)c4ccc(C)cc4)cc3)c(S(=O)(=O)O)c2)cc1 (centres undefined)    Y
COc1cc(CCC[P+](c2ccccc2)(c2ccccc2)c2ccccc2)c(OC)c2c1OCO2    Y
CNCCCC12CCC(c3ccccc31)c1ccccc12    N
CN1C(=C2C(=O)OC(C)(C)OC2=O)CCC1C(=O)NCc1ccc(Cl)cc1Cl (centres undefined)    N
COc1cc(CNS(=O)(=O)c2ccc(C)cc2)ccc1OCc1cn(-c2ccccc2)nn1    Y
COc1ccc(CN2c3ccccc3Sc3ccccc32)c(F)c1    Y
O=c1ccc(N=Nc2ccc([N+](=O)[O-])cc2)ccc1O    Y
O=c1[nH][n+](-c2ccc(Br)cc2)no1    Y
C=C1C(=O)O[C@H]2[C@H]1CC/C(COC(=O)CSCC(=O)OC/C1=C/CC[C@@]3(C)O[C@H]3[C@H]3OC(=O)C(=C)[C@@H]3CC1)=C\CC[C@@]1(C)O[C@@H]21    Y
COc1cccc(Cc2nn3cc(-c4ccccc4)nc3s2)c1    Y
COc1cc(/C=C/c2c(C(C)=O)c(C)nc3ccccc23)cc(OC)c1OC    Y
O=C(COc1ccc(/C=C2\Cc3ccc(Cl)cc3C2=O)cc1)Nc1nc2ccccc2s1    N
CSc1nc2ccc(C)cc2cc1/C=N/O    N
CNc1nc2c(s1)C(c1cccc(F)c1)CC(=O)N2 (centres undefined)    N

====

Tested on: HT29 colon
Assay Explanation: NCI-60 one-dose screen, 48 h (100 = growth as untreated, 0 = no growth, -100 = all killed)
Experimental Parameters: 10 µM unless noted
The panel holds about 83,000 compounds, 20% with a hit somewhere; the sample as a whole holds those more often.
Using growth as the sorting value, the categories are band 1 (below 20%), band 2 (20% to below 80%), band 3 (80% or more)

O=C(O)CCC(=O)Nc1nnc(-c2ccccc2)s1    band 3
Cn1cc(-c2cc3ncnc(Nc4ccc(CC(=O)Nc5cc(C(C)(C)C)nn5C)cc4)c3s2)cn1    band 2
C(=N/Nc1ncnc2nc[nH]c12)/c1ccccn1    band 2
O=S(=O)(Nc1ccc(-c2nc(-c3cccc(OCCN4CCOCC4)c3)c(-c3ccnc(Br)c3)[nH]2)cc1)c1ccccc1    band 1
Oc1c(I)cc(I)cc1CNCCCN(Cc1ccccn1)Cc1ccccn1    band 1
CCN1C(=O)N(CC)C2Nn3c(s/c(=C4\C(=O)N(CCC(C)C)c5ccccc54)c3=O)=NC21 (stereo not given)    band 3
COc1ccc2sc3c(NCCCN(C)C)nc4ccccc4c3c(=O)c2c1    band 1
COc1ccc2sc3c(NCCO)nc4ccccc4c3c(=O)c2c1    band 3
COc1ccc(/C=N/Nc2cc(=O)[nH]c3ccc(Cl)cc23)cc1    band 1
COc1cc2cc(Oc3ccc(NC(=O)Nc4cccc(C(F)(F)F)c4)cc3)c(C)nc2cc1OCCN1CCOCC1    band 2
C=C1C(=O)O[C@H]2[C@H]1CC/C(COC(=O)CCSSCCC(=O)OC/C1=C/CC[C@@]3(C)O[C@H]3[C@H]3OC(=O)C(=C)[C@@H]3CC1)=C\CC[C@@]1(C)O[C@@H]21    band 1
COc1ccc(NC(=O)n2nc(/C=C\c3ccc(O)c(OC)c3)cc2/C=C\c2ccc(O)c(OC)c2)cc1    band 2
CC[C@H](C)C(=O)O[C@H]1CCC=C2C=C[C@H](C)[C@H](CC[C@@H]3CC=CC(=O)O3)[C@H]21    band 2
COc1ccc(/C=C(/C#N)n2nnc3cccc(F)c32)cc1    band 1
COc1ccc2c(c1)/C(=C/c1sc(=S)n(Cc3ccco3)c1O)C=N2    band 1
Oc1ccc(CCl)c2cccnc12    band 3
O=CN(SSN(C=O)C1CCCCC1)C1CCCCC1    band 3

====

System: SF-268 CNS
Assay Explanation: NCI-60 one-dose screen, 48 h (100 = growth as untreated, 0 = no growth, -100 = all killed)
Experimental Parameters: 10 µM unless noted
Compounds without any hit were thinned out: in the full panel of roughly 83,000, 20% have a hit.
Experimental Readout: growth (%)

Cc1ccc(C(=O)NN2C(=O)CSC2c2ccc(Cl)cc2)cn1 (centres undefined)    101
COc1cc(/C=N/NC(=O)c2ccc(C)nc2)cc(OC)c1OC    104
CC(=O)N1N=C(c2ccc(Nc3nc(Nc4ccc(F)cc4)nc(Nc4ccc(Cl)cc4)n3)cc2)CC1c1ccc(Cl)cc1 (centres undefined)    124
COc1ccc(C(=O)COC(=O)[C@H](C[Se][Se]C[C@H](NC(=O)c2ccc(Br)cc2F)C(=O)OCC(=O)c2ccc(OC)cc2)NC(=O)c2ccc(Br)cc2F)cc1    -54.3
COc1ccc2sc3c(NCCO)nc4ccccc4c3c(=O)c2c1    100
c1ccc(Cc2nn3cc(-c4ccccc4)nc3s2)cc1    98
CCN1C(=O)N(CC)C2Nn3c(s/c(=C4\C(=O)N(CCC(C)C)c5ccccc54)c3=O)=NC21 (centres undefined)    82.5
C#C[C@]1(O)CC[C@H]2[C@@H]3CC=C4c5sc(Nc6cc(F)ccc6F)nc5CC[C@]4(C)[C@H]3CC[C@@]21C    0.557
CC(=O)OC[C@H]1OC(Sc2sc(C(=O)c3ccc(Br)cc3)c(N)c2-c2nc3ccccc3s2)[C@H](OC(C)=O)[C@@H](OC(C)=O)[C@H]1OC(C)=O (some centres undefined)    93
c1ccc2c(-c3nc(-c4c[nH]c5ccncc45)cs3)c[nH]c2c1    68.5
Cc1ccc(-c2nc3c(c(-c4ccccc4)nn3-c3ccccc3)c(-c3ccc(O)cc3)c2C#N)cc1    60.2
Cc1ccc(C(=O)NN2C(=O)CSC2c2cccc([N+](=O)[O-])c2)cn1 (centres undefined)    104
CC(C)(C)NC(=O)C(OC(=O)c1cccc(Cl)c1)c1ccc(Cl)cc1 (centres undefined)    100
COc1cc(C2CC(c3ccc(N(C)C)cc3)=NN2C(C)=O)cc(OC)c1OC (centres undefined)    35
O=c1[nH][n+](-c2ccc(Br)cc2)no1    32.8
S=C(c1cccs1)N1CCN(c2cccc(Cl)c2)CC1    104
Cc1cccc2c(=O)c3c(sc12)c(NCc1ccccc1)nc1ccccc13    107
O=C(CCc1nnc(-c2c(Cl)cccc2Cl)o1)c1nc2ccccc2[nH]1    68.1
COC1=C(C)C(=O)c2c(c(CCCl)c3n2CCC3OC(C)=O)C1=O (centres undefined)    10.4
CCCCCCn1c(-c2ccc(C(=O)O/N=C(\N)c3ccc4ccccc4c3)cc2)nc(-c2ccccc2)c1-c1ccccc1    51.3
CCCCN(C)N=Nc1ccc(C(N)=O)cc1    108
COc1ccc(C(=O)N=Nc2c(O)n(C)c3ccccc23)cc1    95.8
Cc1ccc(-c2nc(N3CCN(C(=O)Nc4ccc(Cl)c(C(F)(F)F)c4)CC3)c3ccccc3n2)cc1    58.1
COc1ccc(C2NC(=O)C(C#N)c3c2sc2c(F)cccc32)c(OC)c1 (centres undefined)    52.1
O=C1CCC/C=C\C[C@H]2C=CC(=O)/C2=C/C[C@H](CCc2cccc(C(F)(F)F)c2)O1    -39
O=C(CSc1nccc(Nc2ccc(S(=O)(=O)Nc3nccs3)cc2)n1)c1ccc(C(F)(F)F)cc1    110
O=C(CCCCCCSc1nc(-c2ccccc2)cc(-c2ccccc2)n1)NO    62.3
COc1ccc(NC2=C(Br)C(=O)C(C)=C(C)C2=O)cc1    98
Cc1ccc(-c2nc(N3CCN(C(=O)c4ccc(OC(F)(F)F)cc4)CC3)c3ccccc3n2)cc1    71.9
c1ccc(OCc2nnc(-c3ccc(Oc4ccccc4)cc3)o2)cc1    89.2
NS(=O)(=O)c1ccc(N=Nc2ccc(-c3nn4cc(-c5ccccc5)nc4s3)cc2)cc1    101
Cc1cc(=O)[nH]c(=O)n1Cc1cn(-c2c3ccccc3nc3ccccc23)nn1    90.4
CC1=NN(c2ccc(S(=O)(=O)O)cc2)C(=O)C1N=Nc1ccc(-c2ccc(N=Nc3ccc(OS(=O)(=O)c4ccc(C)cc4)cc3)c(S(=O)(=O)O)c2)cc1 (centres undefined)    100
Cc1c(C(=O)/C=C/Nc2c(Cl)cc(S(N)(=O)=O)cc2Cl)sc2nc3ccccc3n12    95.4
COc1ccc(S(=O)(=O)n2c3ccccc3n3ncc(-c4nnc(C)o4)c23)cc1    53
O=C1/C(=C/c2ccc(F)cc2)Sc2c(Br)cccc21    79
O=C(O)C(c1ccccc1)N1C(=O)CSC1=S (centres undefined)    94.4
COc1ccc(-c2conc2-c2ccccc2)cc1    44.6
O=c1c2cccc(F)c2sc2c(NCCCNCCO)nc3ccccc3c12    41.9
